experiment: Pharmacokinetics in SD rats; type: in vivo; conditions: rat, in vivo; IV Inf (15 minutes); read-out: Vdss
Starred links: 1 amine or outer side, 2 acyl side, 3 side chain; linkers in the order of their positions; H or OH if unused. Positions of bridges follow the written chain, without caps; N, C: chain ends. Non-standard residues stand in square brackets, D forms with d. Chains are numbered I, II in the order given. X1 = O=C(CCOCCOCCOCCN(CCOCCOCCOCCn1cc(CCC(=O)[*:2])nn1)CCOCCOCCOCCn1cc(CCC(=O)[*:3])nn1)[*:1]; X2 = O=C(CCSCCC(=O)[*:1])N1CN(C(=O)CC[*:2])CN(C(=O)CC[*:3])C1; TATA = O=C(CC[*:1])N1CN(C(=O)CC[*:2])CN(C(=O)CC[*:3])C1; Hyp = O=C(O)[C@@H]1C[C@@H](O)CN1; hArg = N=C(N)NCCCC[C@H](N)C(=O)O; tBuAla = CC(C)(C)C[C@H](N)C(=O)O; Nle = CCCC[C@H](N)C(=O)O; Mpa = O=C(O)CCS
Some substances, each annotated with its measured Vd.
Dear colleague, please return just the value in L/kg, with no unit written.

substance: I: A[hArg]DC[Hyp]LVNPLCLHP[dD]W[hArg]C-NH2 / II: [Mpa][tBuAla]PE[dK]PYCFADPY[Nle]C-NH2 / III: [tBuAla]PE[dK]PYCFADPY[Nle]C-NH2 (linker I:4-I:11-I:18, II:1-II:8-II:15 via TATA; linker I:N-II:5-III:4 via X1; linker III:N-III:7-III:14 via X2) [BCY12730]
observedResult: 2.6

Consider the record given below.
GET /values?readout=Vd&item= I: A[hArg]DC[Hyp]LVNPLCLHP[dD]W[hArg]C-NH2 / II: Ac-C[tBuAla]PE[dK]PYCFADPY[Nle]C-NH2 / III: Ac-C[tBuAla]PE[dK]PYCFADPY[Nle]C-NH2 (linker I:4-I:11-I:18, II:1-II:8-II:15, III:1-III:8-III:15 via TATA; linker I:N-II:5-III:5 via X1) [BCY12724]
1.2

----------
target: CD137 (Homo sapiens, UniProt Q07011); assay: CD137 reporter assay (Promega, Jurkat cells) in co-culture with EphA2-expressing tumor cells (A549, PC3, HT29); assay type: cell-based; set-up: host or cells: Jurkat reporter cells; conditions: co-culture with PC3
Sequence (Q07011 24-255): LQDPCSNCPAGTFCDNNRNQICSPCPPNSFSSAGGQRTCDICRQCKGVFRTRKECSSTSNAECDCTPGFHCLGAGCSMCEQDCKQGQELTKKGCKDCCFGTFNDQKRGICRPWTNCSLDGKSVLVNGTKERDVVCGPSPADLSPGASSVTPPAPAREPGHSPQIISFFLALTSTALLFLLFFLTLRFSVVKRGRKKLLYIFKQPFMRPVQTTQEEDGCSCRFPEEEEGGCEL
Starred links: 1 amine or outer side, 2 acyl side, 3 side chain; linkers in the order of their positions; H or OH if unused. Positions of bridges follow the written chain, without caps; N, C: chain ends. Non-standard residues stand in square brackets, D forms with d. Primed or numbered codes have the meaning given here. Chains are numbered I, II in the order given. No end group written: not given here. *: point of attachment. PYA″ = 4-pentynoic acid, acylating the D-Lys side chain, alkyne clicked to the linker azide; PYA(3) = 4-pentynoic acid, on D-Lys NZ, clicked (triazole) to the linker azide; TATA = O=C(CC[*:1])N1CN(C(=O)CC[*:2])CN(C(=O)CC[*:3])C1; Ala(4-thiazolyl) = N[C@@H](Cc1cscn1)C(=O)O; His(τ-Me) = Cn1cnc(C[C@H](N)C(=O)O)c1; Hyp = O=C(O)[C@@H]1C[C@@H](O)CN1; hArg = N=C(N)NCCCC[C@H](N)C(=O)O; tBuAla = CC(C)(C)C[C@H](N)C(=O)O; Nle = CCCC[C@H](N)C(=O)O; Pent4ynoyl = C#CCCC(=O)*
In this section we review reported Fold Improvement over BCY9173, EC50 (nM) values for a set of substances.
Could you give me the number in fold? Just the number is fine.

# count of solved cases: 4
substance: BCY12723: EphA2:CD137 1:2; BCY9594 + 2x BCY12143; linker N-(acid-PEG3)-N-bis(PEG3-azide) (peptide 1 A[hArg]DC[Hyp]LVNPLCLHP[dD]W[hArg]C; peptide 2 Ac-C[tBuAla]EE[dK](Pent4ynoyl)PYCFADPY[Nle]C; linker I:4-I:11-I:18, II:1-II:8-II:15 via TATA; not fully specified (bridges); also: chain 2 present twice on linker, EphA2:CD137 1:2)
Fold Improvement over BCY9173, EC50 (nM) [fold]: 2.2

substance: BCY14050: EphA2:CD137 1:2; BCY13918 + 2x BCY8928; linker N-(acid-PEG3)-N-bis(PEG3-azide) (peptide 1 A[hArg]DC[Hyp]LVNPLCL[His(τ-Me)]P[dD]W[hArg]C; peptide 2 Ac-C[tBuAla]PE[dK](PYA″)PYCFADPY[Nle]CA; linker I:4-I:11-I:18, II:1-II:8-II:15 via TATA (inferred); not fully specified (N-terminus, bridges); also: 2x chain 2 (2x BCY8928) on linker)
Fold Improvement over BCY9173, EC50 (nM) [fold]: 2.05

substance: BCY14051: EphA2:CD137 1:2; BCY13919 + 2x BCY8928; linker N-(acid-PEG3)-N-bis(PEG3-azide) (peptide 1 A[hArg]DC[Hyp]LVNPLCL[Ala(4-thiazolyl)]P[dD]W[hArg]C; peptide 2 Ac-C[tBuAla]PE[dK](PYA″)PYCFADPY[Nle]CA; linker I:4-I:11-I:18, II:1-II:8-II:15 via TATA (inferred); not fully specified (N-terminus, bridges); also: 2x chain 2 (2x BCY8928) on linker)
Fold Improvement over BCY9173, EC50 (nM) [fold]: 3.15

substance: BCY14052: EphA2:CD137 1:2; BCY13920 + 2x BCY8928; linker N-(acid-PEG3)-N-bis(PEG3-azide) (peptide 1 A[hArg]DC[Hyp]LVNPLCLFP[dD]W[hArg]C; peptide 2 Ac-C[tBuAla]PE[dK](PYA″)PYCFADPY[Nle]CA; linker I:4-I:11-I:18 via TATA; linker II:1-II:8-II:15 via TATA (inferred); not fully specified (N-terminus, bridges); also: 2x chain 2 (2x BCY8928) on linker)
Fold Improvement over BCY9173, EC50 (nM) [fold]: 4.16

// next entry
Given the entry BCY12725: EphA2:CD137 1:2; BCY9594 + 2x BCY12147; linker N-(acid-PEG3)-N-bis(PEG3-azide) (peptide 1 A[hArg]DC[Hyp]LVNPLCLHP[dD]W[hArg]C; peptide 2 Ac-C[tBuAla]PE[dK](PYA(3))PYCFANPY[Nle]C; linker I:4-I:11-I:18, II:1-II:8-II:15 via TATA; not fully specified (N-terminus, bridges); also: chain 2 present twice on linker, EphA2:CD137 1:2) , report its measured Fold Improvement over BCY9173, EC50 (nM).
0.1
